Item-by-item account of IC50
Biological target: T1, Fc-CLEC1 labelled with Alexa Fluor 488 (human, Alexa Fluor 488 label (sites not given))
T1 construct: also called Fc-CLEC1-A488; Alexa488-Fc-Clec-1
T1 chain: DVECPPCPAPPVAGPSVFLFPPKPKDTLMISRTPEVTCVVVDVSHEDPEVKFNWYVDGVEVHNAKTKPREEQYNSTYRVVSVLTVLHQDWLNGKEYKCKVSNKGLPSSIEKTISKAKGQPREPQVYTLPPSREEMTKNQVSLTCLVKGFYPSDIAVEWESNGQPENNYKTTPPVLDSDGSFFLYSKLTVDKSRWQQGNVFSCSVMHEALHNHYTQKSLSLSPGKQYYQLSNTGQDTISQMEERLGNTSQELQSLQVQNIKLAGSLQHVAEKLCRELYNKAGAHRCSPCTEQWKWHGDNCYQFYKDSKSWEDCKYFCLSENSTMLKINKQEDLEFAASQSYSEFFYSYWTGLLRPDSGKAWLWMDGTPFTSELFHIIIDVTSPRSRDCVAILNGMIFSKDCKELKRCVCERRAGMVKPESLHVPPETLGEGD
Experiment: FACS competition: blocks Fc-CLEC1-A488 (10 nM) binding to CLEC-1 ligand on permeabilised Raji cells; IC50 median
Respond with the bare value in nM.

A selection of reference data follows.
- chimeric anti-CLEC-1A antibody 5D1 (antibody, human IgG4 S228P, kappa, V domains shown, also called 5D1chim; 5D1-VHwt-FcG4m / 5D1-VLwt-CLhk) VH: QVQLKESGPGLVAPSQSLSITCTISGFSLTSYGVHWVRQPPGKGLEWLVVIWSDGSTIYNSALKSRLSISKDNSKSQVFLKMNSLQTDDTAMYYCARHGGYYNYFDYWGQGTTLTVSS VL: DIQMNQSPSSLSASLGDTITITCHASQNINVWLSWYQQKPGNIPKLLIYKASNLHTGVPSRFSGSGSGTGFTLTISSLQPEDIATYYCQQGQSYWTFGGGTKLEIKR: 13.7
- chimeric anti-CLEC-1A antibody 15E3 (antibody, human IgG4 S228P, kappa, V domains shown, also called 15E3chim; 15E3-VHwt-FcG4m / 15E3-VLwt-CLhk) VH: QVQLQQSGPELVKPGASVKMSCKASGFTFTDYVIAWVKVRTGQGLEWIGEIYPGSGSIYYNEKFKGKATLTADKSSNTAYMQLSSLTSEDSAVYFCASSTVVAFDYWGQGTTLTVSS VL: EIVLTQSPTTLAASPGEKIIITCSDSSSISSNYLHWYQQKPGFSPKLLIYGTSNLASGVPARFSGSGSGTTYSLTIGTMEAEDVATYYCQQGSSIPRTFGGGTKLEIKR: 8.67
- chimeric anti-CLEC-1A antibody 14H9 (antibody, human IgG4 S228P, kappa, V domains shown, also called 14H9chim; 14H9-VHwt-FcG4m / 14H9-VLwt-CLhk) VH: QVQLKESGPGLVAPSQSLSITCTISGFSLTTYGIHWVRQPPGKGLEWLVVIWSDGSTIYNSALKSRLSISKDNSKSQVFLKMNSLQTDDTAIYYCARHGGYYNYFDYWGQGTTLTVSS VL: DIQMNQSPSSLSASLGDTITITCHASQNINVWLSWYQQKPGNIPKLLIYKASNLHTGVPSRFSGSGSGTTFTLTIDSLQPEDIATYYCQQGQSYWTFGGGTKLEIKR: 3.9

# input for lookup
[ask] Param item = chimeric anti-CLEC-1A antibody 11H11 (antibody, human IgG4 S228P, kappa, V domains shown, also called 11H11chim; 11H11-VHwt-FcG4m / 11H11-VLwt-CLhk) VH: QIHLVQSGPELKKPGETVKISCKASGYTFTNFGMNWVKQAPGKGLKWMGWINTNTGEPTYADDFKGRFAFSLETSASTAYLQINNLKNEDTATYFCARGAPAWFTYWGQGTLVTVSA VL: DIQMTQSPASLSASVGETVTITCRATENIYSYLAWYQQKQGKSPQFLVYNAKTLAEGMPSRFSGSGSGTQFSLKINILQPEDFGTYYCQHHFGTPLTFGAGTKLELKR ; retrieve measured IC50.
[reply] 5.84
